Target: T1, human MAdCAM (human, UniProt Q13477 19-317, limits assumed)
T1 construct: also called huMAdCAM; human MAdCAM-1
T1 sequence (looked up): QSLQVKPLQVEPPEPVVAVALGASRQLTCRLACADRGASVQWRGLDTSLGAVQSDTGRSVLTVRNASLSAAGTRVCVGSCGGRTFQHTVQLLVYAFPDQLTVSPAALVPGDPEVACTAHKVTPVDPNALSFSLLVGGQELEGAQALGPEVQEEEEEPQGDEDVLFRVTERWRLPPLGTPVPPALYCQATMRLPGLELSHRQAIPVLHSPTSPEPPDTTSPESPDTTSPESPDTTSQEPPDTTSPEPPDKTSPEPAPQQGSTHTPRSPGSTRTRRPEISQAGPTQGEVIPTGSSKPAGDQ
Assay: BLI (Octet), binder on anti-human Fc tips
property.measured: koff (s⁻¹)

binder: MIAB148 (antibody, V domains shown, tested with human Fc) VH: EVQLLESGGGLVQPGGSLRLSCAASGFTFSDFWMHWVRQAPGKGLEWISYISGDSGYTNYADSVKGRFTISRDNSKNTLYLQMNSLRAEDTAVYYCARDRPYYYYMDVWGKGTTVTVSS VL: DIQMTQSPSSLSASVGDRVTITCRASQSVSRSLNWYQQKPGKAPKLLIYAASSLQSGVPSRFSGSGSGTDFTLTISSLQPEDFATYYCQQYKSYPVTFGQGTKVEIK
readout.units: s⁻¹
reported.result: 0.314
//
binder: MIAB146 (antibody, V domains shown, tested with human Fc; also called MIAB146-001) VH: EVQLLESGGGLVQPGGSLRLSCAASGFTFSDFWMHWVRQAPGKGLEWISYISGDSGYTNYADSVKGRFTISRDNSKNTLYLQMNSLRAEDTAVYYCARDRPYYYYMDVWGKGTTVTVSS VL: DIQMTQSPSSLSASVGDRVTITCRASQSVSSSLAWYQQKPGKAPKLLIYAASSLQSGVPSRFSGSGSGTDFTLTISSLQPEDFATYYCQQYKSYPVTFGQGTKVEIK
readout.units: s⁻¹
reported.result: 0.0197
//
binder: MIAB175 (antibody, V domains shown, tested with human Fc; also called MIAB175-001) VH: EVQLLESGGGLVQPGGSLRLSCAASGFTFSSYWMHWVRQAPGKGLEWISYISGDSGYTNYADSVKGRFTISRDNSKNTLYLQMNSLRAEDTAVYYCARDRPYYYYMDVWGKGTTVTVSS VL: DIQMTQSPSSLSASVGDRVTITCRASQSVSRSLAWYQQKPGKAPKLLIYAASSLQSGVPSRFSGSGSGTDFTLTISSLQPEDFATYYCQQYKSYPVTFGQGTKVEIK
readout.units: s⁻¹
reported.result: 0.0106

Cited source for all entries: patent US20240010722A1
